Recorded values, source paper PMC9917184.

Items are presented alongside their recorded remaining activity at 100 µM.
molecular target: membrane PD-L1 (Homo sapiens); construct: Alexa Fluor® 647 Rabbit monoclonal Anti-PD-L1 (ab215251); endogenous in cells; host or cells: HT-29, MCF-7, A-549 (A17: MCF-7 only; A14: IFN-gamma-stimulated cancer cells co-cultured with Jurkat T cells); assay: Membrane PD-L1 relative quantification by flow cytometry in cancer cells co-cultured with Jurkat T cells; type: cell-based; conditions: Jurkat, 24 h, HT29 co-cultured with Jurkat T cells, relative to non-treated co-cultures, read-out: % PDL1 (membrane)
Sequence (Q9NZQ7 19-290): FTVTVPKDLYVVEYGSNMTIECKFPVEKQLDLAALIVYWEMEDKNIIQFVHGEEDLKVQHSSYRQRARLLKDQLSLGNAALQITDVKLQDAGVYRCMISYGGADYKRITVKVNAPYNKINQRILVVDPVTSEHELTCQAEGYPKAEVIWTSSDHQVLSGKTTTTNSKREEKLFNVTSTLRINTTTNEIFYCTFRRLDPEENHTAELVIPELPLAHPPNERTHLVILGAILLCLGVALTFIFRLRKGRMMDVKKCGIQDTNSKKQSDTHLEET
Write the figure, then the unit, nothing else.

COc1ccc(-c2cn(CCc3ccc(CCO)cc3)nn2)cc1
126%
OCCc1ccc(CCn2cc(-c3ccccc3)nn2)cc1
124%
COc1ccc(-c2cn(CCc3ccc(CCOC(c4ccccc4)(c4ccc(OC)cc4)c4ccc(OC)cc4)cc3)nn2)cc1
63%
COc1ccc(C(OCCc2ccc(CCn3cc(-c4ccccc4OC)nn3)cc2)(c2ccccc2)c2ccc(OC)cc2)cc1
57%
OCCc1ccc(CCn2cc(-c3ccc(Br)cc3)nn2)cc1
54%

I have this compound here, `OCCc1ccc(CCn2cc(-c3cccc(Br)c3)nn2)cc1` , and I need its recorded remaining activity at 100 µM.
63%

I have this compound here, `COc1ccccc1-c1cn(CCc2ccc(CCO)cc2)nn1` , and I need its recorded remaining activity at 100 µM.
61%

I have this compound here, `COc1ccc(C(OCCc2ccc(CCn3cc(-c4ccccc4)nn3)cc2)(c2ccccc2)c2ccc(OC)cc2)cc1` , and I need its recorded remaining activity at 100 µM.
143%

I have this compound here, Cc1c(COc2ccc(CN3CCCCC3C(=O)O)cc2Br)cccc1-c1ccccc1 (stereo not drawn) [BMS-8, reference compound] , and I need its recorded remaining activity at 100 µM.
105%

I have this compound here, `COc1cccc(-c2cn(CCc3ccc(CCO)cc3)nn2)c1` , and I need its recorded remaining activity at 100 µM.
88%

* * *

test system: A-549; assay: A-549 cell viability in co-culture with Jurkat T cells (flow cytometry count); type: cell-based, human; details: co-cultured with Jurkat T cells, 100 μM, 24 h
measured_metric: inhibition rate of A-549 cell viability

OCCc1ccc(CCn2cc(-c3cccc(Br)c3)nn2)cc1
around 30%
OCCc1ccc(CCn2cc(-c3ccc(Br)cc3)nn2)cc1
around 30%
COc1cccc(-c2cn(CCc3ccc(CCO)cc3)nn2)c1
around 30%
COc1ccc(-c2cn(CCc3ccc(CCOC(c4ccccc4)(c4ccc(OC)cc4)c4ccc(OC)cc4)cc3)nn2)cc1
no activity
COc1ccc(-c2cn(CCc3ccc(CCO)cc3)nn2)cc1
no activity
COc1ccccc1-c1cn(CCc2ccc(CCO)cc2)nn1
around 30%

I have this compound here, `OCCc1ccc(CCn2cc(-c3ccccc3Br)nn2)cc1` , and I need its recorded inhibition rate of A-549 cell viability.
around 30%

* * *

Items are presented alongside their recorded viability at 100 µM.
Tested on: MCF-7
Assay: MCF-7 cell viability in co-culture with Jurkat T cells (flow cytometry count)
Format: cell-based, human
Settings: Homo sapiens, MCF7, MCF-7/Jurkat T co-culture, IFN-γ stimulated, 24 h, read-out: percentage of living MCF-7 cells relative to non-treated co-cultures
Protocol: The effect of the synthesized compounds on tumor cell proliferation in the presence of PD-1-expressing Jurkat T cells was also studied. This assay was carried out, as in the previous experiments, in the HT29, MCF7, and A549 cell lines (see Table 4). Interferon γ-stimulated cancer cells were treated for 24 h with the compounds at 100 μM in presence of Jurkat T cells. Then, cells were counted using flow cytometry. […]
Quick reminder: number only, in %, skip the unit.

Check out these entries, answers already filled in.
COc1ccc(-c2cn(CCc3ccc(CCOC(c4ccccc4)(c4ccc(OC)cc4)c4ccc(OC)cc4)cc3)nn2)cc1
69
OCCc1ccc(CCn2cc(-c3cccc(Br)c3)nn2)cc1
65
OCCc1ccc(CCn2cc(-c3ccccc3)nn2)cc1
80
OCCc1ccc(CCn2cc(-c3ccc(Br)cc3)nn2)cc1
87
OCCc1ccc(CCn2cc(-c3ccccc3Br)nn2)cc1
49

I have this molecule here, Cc1c(COc2ccc(CN3CCCCC3C(=O)O)cc2Br)cccc1-c1ccccc1 (centres unmarked) [BMS-8, reference compound] , and I need its recorded viability at 100 µM.
57

I have this molecule here, `COc1ccc(C(OCCc2ccc(CCn3cc(-c4ccccc4OC)nn3)cc2)(c2ccccc2)c2ccc(OC)cc2)cc1` , and I need its recorded viability at 100 µM.
43

I have this molecule here, `COc1cccc(-c2cn(CCc3ccc(CCO)cc3)nn2)c1` , and I need its recorded viability at 100 µM.
78

I have this molecule here, `COc1ccccc1-c1cn(CCc2ccc(CCO)cc2)nn1` , and I need its recorded viability at 100 µM.
47

I have this molecule here, `COc1ccc(C(OCCc2ccc(CCn3cc(-c4cccc(Br)c4)nn3)cc2)(c2ccccc2)c2ccc(OC)cc2)cc1` , and I need its recorded viability at 100 µM.
37

I have this molecule here, `COc1ccc(C(OCCc2ccc(CCn3cc(-c4ccccc4Br)nn3)cc2)(c2ccccc2)c2ccc(OC)cc2)cc1` , and I need its recorded viability at 100 µM.
41

* * *

test system: Jurkat T cells; assay: Jurkat T cell viability in co-culture with cancer cells (flow cytometry count); type: cell-based; details: Homo sapiens, 24 h, HT-29/Jurkat T co-culture, read-out: percentage of living Jurkat cells relative to non-treated co-cultures
Items are presented alongside their recorded viability at 100 µM.
Quick reminder: number only, in %, skip the unit.

Check out these entries, answers already filled in.
COc1ccc(C(OCCc2ccc(CCn3cc(-c4cccc(Br)c4)nn3)cc2)(c2ccccc2)c2ccc(OC)cc2)cc1
48
Cc1c(COc2ccc(CN3CCCCC3C(=O)O)cc2Br)cccc1-c1ccccc1 (centres unmarked) [BMS-8, reference compound]
148

I have this molecule here, `COc1ccc(C(OCCc2ccc(CCn3cc(-c4ccccc4Br)nn3)cc2)(c2ccccc2)c2ccc(OC)cc2)cc1` , and I need its recorded viability at 100 µM.
70

I have this molecule here, `COc1ccccc1-c1cn(CCc2ccc(CCO)cc2)nn1` , and I need its recorded viability at 100 µM.
106

I have this molecule here, `COc1cccc(-c2cn(CCc3ccc(CCO)cc3)nn2)c1` , and I need its recorded viability at 100 µM.
104

I have this molecule here, `COc1ccc(C(OCCc2ccc(CCn3cc(-c4cccc(OC)c4)nn3)cc2)(c2ccccc2)c2ccc(OC)cc2)cc1` , and I need its recorded viability at 100 µM.
76

I have this molecule here, `OCCc1ccc(CCn2cc(-c3ccccc3)nn2)cc1` , and I need its recorded viability at 100 µM.
107

I have this molecule here, `COc1ccc(C(OCCc2ccc(CCn3cc(-c4ccccc4)nn3)cc2)(c2ccccc2)c2ccc(OC)cc2)cc1` , and I need its recorded viability at 100 µM.
108

* * *

target: PD-L1 (Homo sapiens, UniProt Q9NZQ7); assay: Total PD-L1 relative quantification by flow cytometry in cancer cell lines; format: cell-based; set-up: Alexa Fluor® 647 Rabbit monoclonal Anti-PD-L1 (ab215251); endogenous in cells; host or cells: HT-29; conditions: MCF7; MCF-7, 100 µM, 24 h, total PD-L1 relative to negative control (DMSO)
Response field label: string, one of YES (remaining activity at 100 µM strictly below 90%) or NO.

OCCc1ccc(CCn2cc(-c3ccccc3)nn2)cc1 [Compound 2]
NO
COc1ccc(-c2cn(CCc3ccc(CCO)cc3)nn2)cc1 [Compound 10]
NO
OCCc1ccc(CCn2cc(-c3ccc(Br)cc3)nn2)cc1 [Compound 4]
NO

Decide: remaining activity at 100 µM of COc1ccc(C(OCCc2ccc(CCn3cc(-c4ccccc4Br)nn3)cc2)(c2ccccc2)c2ccc(OC)cc2)cc1 [Compound 7] strictly below 90%?
YES

Decide: remaining activity at 100 µM of COc1ccc(C(OCCc2ccc(CCn3cc(-c4cccc(OC)c4)nn3)cc2)(c2ccccc2)c2ccc(OC)cc2)cc1 [Compound 11] strictly below 90%?
NO

Decide: remaining activity at 100 µM of OCCc1ccc(CCn2cc(-c3cccc(Br)c3)nn2)cc1 [Compound 6] strictly below 90%?
NO

Decide: remaining activity at 100 µM of COc1ccc(C(OCCc2ccc(CCn3cc(-c4ccccc4OC)nn3)cc2)(c2ccccc2)c2ccc(OC)cc2)cc1 [Compound 13] strictly below 90%?
YES

Decide: remaining activity at 100 µM of OCCc1ccc(CCn2cc(-c3ccccc3Br)nn2)cc1 [Compound 8] strictly below 90%?
YES

Decide: remaining activity at 100 µM of Cc1c(COc2ccc(CN3CCCCC3C(=O)O)cc2Br)cccc1-c1ccccc1 (centres unmarked) [BMS-8, reference compound] strictly below 90%?
YES

* * *

tested on: c-Myc; assay: Total c-Myc relative quantification by flow cytometry in cancer cell lines; assay type: cell-based, human; conditions: MCF-7, 100 µM, 24 h, relative to negative control (DMSO)
Response field label: string, one of TRUE (% c-Myc strictly below 70%) or FALSE.

COc1ccc(C(OCCc2ccc(CCn3cc(-c4ccccc4)nn3)cc2)(c2ccccc2)c2ccc(OC)cc2)cc1
FALSE
COc1ccc(C(OCCc2ccc(CCn3cc(-c4ccc(Br)cc4)nn3)cc2)(c2ccccc2)c2ccc(OC)cc2)cc1
TRUE
Cc1c(COc2ccc(CN3CCCCC3C(=O)O)cc2Br)cccc1-c1ccccc1 (centres unmarked) [BMS-8, reference compound]
FALSE
COc1ccc(C(OCCc2ccc(CCn3cc(-c4cccc(Br)c4)nn3)cc2)(c2ccccc2)c2ccc(OC)cc2)cc1
TRUE
COc1ccc(C(OCCc2ccc(CCn3cc(-c4ccccc4Br)nn3)cc2)(c2ccccc2)c2ccc(OC)cc2)cc1
TRUE

Decide: % c-Myc of `OCCc1ccc(CCn2cc(-c3cccc(Br)c3)nn2)cc1` strictly below 70%?
FALSE

Decide: % c-Myc of `OCCc1ccc(CCn2cc(-c3ccccc3Br)nn2)cc1` strictly below 70%?
FALSE
